The entries below come with measured Kd values attached.
biological target: T1, recombinant BACE1 (BACE1 extracellular domain, R&D Systems Cat#931-AS) (UniProt P56817 22-457); assay: SPR Biacore
T1 construct: extracellular domain; also called BACE1 extracellular domain protein
T1 sequence (P56817 22-457): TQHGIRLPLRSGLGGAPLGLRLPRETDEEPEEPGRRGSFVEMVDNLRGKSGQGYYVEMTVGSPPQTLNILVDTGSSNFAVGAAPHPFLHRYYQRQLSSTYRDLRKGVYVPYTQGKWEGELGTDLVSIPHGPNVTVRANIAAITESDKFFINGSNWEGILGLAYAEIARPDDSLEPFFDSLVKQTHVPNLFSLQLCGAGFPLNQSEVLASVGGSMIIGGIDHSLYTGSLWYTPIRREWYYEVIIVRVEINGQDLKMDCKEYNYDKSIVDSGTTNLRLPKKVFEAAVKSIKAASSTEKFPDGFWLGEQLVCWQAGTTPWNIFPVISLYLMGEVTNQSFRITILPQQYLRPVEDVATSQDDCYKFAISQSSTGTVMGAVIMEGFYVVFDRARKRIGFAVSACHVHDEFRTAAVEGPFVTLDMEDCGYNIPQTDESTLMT
Quick note: give the figure in nM, leave out the unit.

Worked examples follow.
| Binder | Meas Value |
| --- | --- |
| hu2H8v9 (antibody, V domains shown, humanized; also called hu2H8_HC3 + hu2H8_LC2) VH: QVQLVQSGAEVKKPGASVKVSCKASGYTFTNFWIHWLRQAPGQGLEWMGMIDPSDSYTKYNQKFKARVTMTVDTSTSTTYMELSSLRSEDTAVYYCARSGVAFPYWGQGTLVTVSS VL: DIQMTQSPSSLSASVGDRVTITCKASQDVGRNVAWYQQKPGKSPKLLIYSASHRYSGVPSRFSGSGSGTDFTLTISSLQPEDFATYYCQQYNSYPYTFGQGTKVEIK | 130 |
| hu2H8v22 (antibody, V domains shown, humanized; also called hu2H8_HC5 + hu2H8_LC4) VH: QVQLVQSGAEVKKPGASVKVSCKASGYTFTNFWIHWVRQAPGQGLEWMGMIDPSDSYTKYNQKFKARATLTRDTSTSTVYMELSSLRSEDTAVYYCARSGVAFPYWGQGTLVTVSS VL: DIQMTQSPSSLSASVGDRVTITCKASQDVGRNVAWYQQKPGKSPKSLIYSASHRYSGVPSRFSGSGSGTDFTLTISSLQPEDFATYYCQQYNSYPYTFGQGTKVEIK | 21.9 |

Continue with the binder presented below.
Prompt line: Write down Kd measured for item hu2H8v5 (antibody, V domains shown, humanized; also called hu2H8_HC6 + hu2H8_LC1) VH: QVQLVQSGAEVKKPGASVKVSCKASGYTFTNFWIHWVRQAPGQGLEWMGMIDPSDSYTKYNQKFKARATLTVDTSTSTVYMELSSLRSEDTAVYYCARSGVAFPYWGQGTLVTVSS VL: DIQMTQSPSSLSASVGDRVTITCKASQDVGRNVAWYQQKPGKAPKLLIYSASHRYSGVPSRFSGSGSGTDFTLTISSLQPEDFATYYCQQYNSYPYTFGQGTKVEIK
Response line: 96.3
